Assay: logP determination by HPLC (EEC Directive 79/831 Annex V. A8)
Format: physicochemical
Settings: pH=2.3; read-out: log P(pH=2.3)
Method: logP value is determined in accordance with EEC Directive 79/831 Annex V. A8 by HPLC (gradient method, acetonitrile/0.1% aqueous phosphoric acid)
PROPERTY: chromatographic logP
Please give only the number in your answer, with no unit.

Request: Item under review: CC1CCN(c2c(-c3ccc(F)cc3Cl)c(Cl)nc3c(C#N)cnn23)CC1 . Reported chromatographic logP?
Result: 4.88
